# Test system: TK-10
# Assay protocol: NCI tumour cell line growth inhibition, 48 h
Active and inactive are the calls of the source. No stated cut-off is given here; in the data, active = GI50 up to about 1.1 µM and inactive = higher.

Compound	GI50
Cc1cc2c(O)c(c1)CN(Cc1ccccc1)Cc1cc(C)cc(c1O)CN(Cc1ccccc1)Cc1cc(C)cc(c1O)CN(Cc1ccccc1)C2	> 100 µM (inactive)
CC1(C(O)c2ccccc2)CN(C(C)(C)C)C(=O)/C1=C\Sc1ccccc1 (stereo not given)	> 100 µM (inactive)
Cc1cc(C)nc(NS(=O)(=O)c2ccc(NC(=O)NC(F)(F)F)cc2)n1	> 100 µM (inactive)
O=c1[nH]cnc2c1sc1nc3ccccc3n12	70 µM (inactive)
N#Cc1c(-c2ccccc2)nc(-c2ccccc2)sc1=S	> 100 µM (inactive)

----------
# Tested on: DLD-1
# Assay protocol: NCI tumour cell line growth inhibition, 48 h
The source made the active and inactive calls. Cut-off read from the data, not from the text of the source: active = GI50 up to about 1.1 µM and inactive = higher.

Compound	GI50
CC1(C2CCC3(C)OC3C2)CO1 (centres undefined)	> 100 µM (inactive)
COc1cc2c(cc1O)C1C(O)C(O)C=C3CCN(C2)C31 (centres undefined)	2.47 µM (inactive)
COc1ccc2c(c1)[n+]([O-])c(/C(C)=N/NC(=O)CC#N)c[n+]2[O-]	74.6 µM (inactive)
O=C(n1c2ccccc2c2nnc(S)nc21)C(F)(F)F	> 100 µM (inactive)
C=C(N=[N+]=[N-])c1cn(C2CC(O)C(CO)O2)c(=O)[nH]c1=O (centres undefined)	> 100 µM (inactive)
CC1(C)c2ccccc2N2C(c3ccccc3)=NOC21C (centres undefined)	> 100 µM (inactive)
C=CCn1c(=O)n(CC=C)c(=O)n(CC=C)c1=O	> 100 µM (inactive)
CCOP(=S)(OCC)Oc1ccc2c(c1)OC(=O)C1(Cl)C2(C)C2(Cl)C(=O)Oc3cc(OP(=S)(OCC)OCC)ccc3C12C (centres undefined)	16.8 µM (inactive)
Cc1c2n(c(=O)[nH]c1=O)C1OC(CO)C(N=[N+]=[N-])C1O2 (centres undefined)	> 100 µM (inactive)

----------
# System: SK-MEL-5
# Assay protocol: NCI tumour cell line growth inhibition, 48 h
Activity calls are given as the source filed them. Cut-off read from the data, not from the text of the source: active = GI50 up to about 1.1 µM and inactive = higher.
The following molecules are shown together with reported GI50 values.
Metric: GI50

Molecule	Result
Clc1ccc(/N=C2\c3ccccc3CN2c2ccc(Cl)cc2)cc1	1.43 µM (inactive)
CC(=O)Nc1c(S(=O)(=O)c2ccccc2)c(C)c(C)n1Cc1ccccc1	83.8 µM (inactive)
Cc1ccc(SCC(OCn2cnc3c(Cl)nc(N)nc32)[C@H](C)F)cc1 (stereo partly drawn)	18.1 µM (inactive)

----------
The following compounds are shown together with reported GI50 values.
# Tested on: HOP-62
# Assay protocol: NCI tumour cell line growth inhibition, 48 h
Active and inactive are the calls of the source. Cut-off read from the data, not from the text of the source: active = GI50 up to about 1.1 µM and inactive = higher.

Compound	GI50
CCCCCc1cc2cc3c(c(O)c2c(=O)[nH]1)C1(CCC3)C(=O)c2c(O)ccc(O)c2C1=O	83.9 µM (inactive)
CN1CC=C(OP(=O)(NCc2ccccc2)N(CCCl)CCCl)CC1 (stereo not given)	> 100 µM (inactive)
Cc1cc2c(O)c(c1)CN(Cc1ccccc1)Cc1cc(C)cc(c1O)CN(Cc1ccccc1)Cc1cc(C)cc(c1O)CN(Cc1ccccc1)C2	46.2 µM (inactive)
COC(=O)CSc1[nH]c2nc(C)nc(Nc3ccccc3)c2c1C#N	> 10 µM (inactive)
CC(C)(C)OC(=O)n1cc(C2CNC(=O)C23CCC(=O)N3Cc2ccccc2)c2ccccc21 (stereo not given)	24.8 µM (inactive)
